System Under Test: hNK1R (Homo sapiens)
Construct: host or cells: COS-7
Sequence (P25103 whole entry): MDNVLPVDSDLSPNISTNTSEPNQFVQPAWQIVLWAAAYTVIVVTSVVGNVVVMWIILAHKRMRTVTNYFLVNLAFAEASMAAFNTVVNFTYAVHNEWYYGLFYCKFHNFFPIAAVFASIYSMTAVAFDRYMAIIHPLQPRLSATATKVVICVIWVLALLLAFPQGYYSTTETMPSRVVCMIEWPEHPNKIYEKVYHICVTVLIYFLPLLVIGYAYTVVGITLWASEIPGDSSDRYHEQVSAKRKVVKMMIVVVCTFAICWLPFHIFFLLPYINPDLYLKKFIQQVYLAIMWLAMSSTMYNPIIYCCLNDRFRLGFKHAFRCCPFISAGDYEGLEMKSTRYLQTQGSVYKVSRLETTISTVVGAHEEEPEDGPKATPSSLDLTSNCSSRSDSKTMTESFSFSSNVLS
Method: IP3 assay (inositol trisphosphate, 3H-myoinositol) in transiently transfected COS-7 cells
Type: cell-based
Measurement Parameters: COS-7 cells; figure legends: percent of 10^-6 M NKA
Numbered stars: 1 amine (or outer) side, 2 acyl side, 3 side chain; on linkers, the order of the positions; unused ones are H or OH. Square brackets hold non-standard residues; d marks the D form. Peptide text beside a SMILES is read from it. * marks the point of attachment. C18 diacid = O=C(O)CCCCCCCCCCCCCCCCC(=O)*; γGlu = O=C(O)[C@H](CCC(=O)[*:2])N[*:1]; NMeL = CN[C@@H](CC(C)C)C(=O)O; Nle = CCCC[C@H](N)C(=O)O; AEEA = NCCOCCOCC(=O)O; βAla = NCCC(=O)O
Experimental Endpoint: hNK1R, IP3 Efficacy (%)
The figure you give is taken to be in %; do not add the unit.

[
  {
    "Compound": "CCCC[C@H](NC(=O)[C@H](CC(C)C)N(C)C(=O)CCNC(=O)[C@@H](NC(=O)[C@H](Cc1ccccc1)NC(=O)[C@H](CO)NC(=O)[C@H](CC(=O)O)NC(=O)[C@@H](NC(=O)[C@H](CCCCN)NC(=O)COCCOCCNC(=O)COCCOCCNC(=O)CC[C@H](NC(=O)CCCCCCCCCCCCCCCCC(=O)O)C(=O)O)[C@@H](C)O)C(C)C)C(N)=O [compound 310] ({C18 diacid-γGlu-AEEA-AEEA}-KTDSFV[βAla][NMeL][Nle]-NH2)",
    "hNK1R, IP3 Efficacy, %": 0
  }
]

Could you now look at the following compound, please?
Please give the measured hNK1R, IP3 Efficacy for this compound: CSCC[C@H](NC(=O)[C@H](CC(C)C)N(C)C(=O)CNC(=O)[C@@H](NC(=O)[C@H](Cc1ccc(O)cc1)NC(=O)[C@H](CCCCN)NC(=O)[C@H](CC(=O)O)NC(=O)COCCOCCNC(=O)COCCOCCNC(=O)CC[C@H](NC(=O)CCCCCCCCCCCCCCCCC(=O)O)C(=O)O)C(C)C)C(N)=O [compound 316, *Asp;Lys;Tyr;Val;Gly;NmLeu;Met;NH2] ({C18 diacid-γGlu-AEEA-AEEA}-DKYVG[NMeL]M-NH2)
100

----------
Each entry below carries its reported hNK2R, Albumin binding Efficacy (%)-ovalbumin.
System Under Test: hNK2R (Homo sapiens)
Construct: host or cells: COS-7
Sequence (P21452 whole entry): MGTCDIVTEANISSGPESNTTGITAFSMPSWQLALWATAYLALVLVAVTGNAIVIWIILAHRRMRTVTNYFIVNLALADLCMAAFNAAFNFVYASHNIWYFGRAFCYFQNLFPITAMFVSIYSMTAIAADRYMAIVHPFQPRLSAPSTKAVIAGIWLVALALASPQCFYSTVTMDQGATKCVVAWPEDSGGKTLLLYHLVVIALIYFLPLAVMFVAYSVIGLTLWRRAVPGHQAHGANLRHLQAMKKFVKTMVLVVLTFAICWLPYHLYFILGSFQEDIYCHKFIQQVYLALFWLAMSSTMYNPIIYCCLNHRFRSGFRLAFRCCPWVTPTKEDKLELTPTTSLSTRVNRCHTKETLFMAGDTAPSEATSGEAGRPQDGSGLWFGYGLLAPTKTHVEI
Method: Indirect human serum albumin binding by IP3 assay, 0.2% ovalbumin vs 1% HSA
Type: cell-based
Measurement Parameters: 0.2% ovalbumin
Numbered stars: 1 amine (or outer) side, 2 acyl side, 3 side chain; on linkers, the order of the positions; unused ones are H or OH. Square brackets hold non-standard residues; d marks the D form. Peptide text beside a SMILES is read from it. * marks the point of attachment. C18 diacid = O=C(O)CCCCCCCCCCCCCCCCC(=O)*; γGlu = O=C(O)[C@H](CCC(=O)[*:2])N[*:1]; Stearoyl = CCCCCCCCCCCCCCCCCC(=O)*; NMeL = CN[C@@H](CC(C)C)C(=O)O; hSer = N[C@@H](CCO)C(=O)O; Nle = CCCC[C@H](N)C(=O)O; AEEA = NCCOCCOCC(=O)O
I only need the number, in %, no unit after it.

What value of hNK2R, Albumin binding Efficacy (%)-ovalbumin has been reported for the following compound? COCC[C@H](NC(=O)[C@H](CC(C)C)N(C)C(=O)CNC(=O)[C@@H](NC(=O)[C@H](Cc1ccc(O)cc1)NC(=O)[C@H](CCCCN)NC(=O)[C@H](CC(=O)O)NC(=O)COCCOCCNC(=O)COCCOCCNC(=O)CC[C@H](NC(=O)CCCCCCCCCCCCCCCCC(=O)O)C(=O)O)C(C)C)C(N)=O [compound 344, *Asp;Lys;Tyr;Val;Gly;NmLeu;Metox;NH2] ({C18 diacid-γGlu-AEEA-AEEA}-DKYVG[NMeL][hSer](Me)-NH2)
95

Item under review: CCCCCCCCCCCCCCCCCC(=O)N[C@@H](CCC(=O)NCCOCCOCC(=O)NCCOCCOCC(=O)N[C@@H](CC(=O)O)C(=O)N[C@@H](CCCCN)C(=O)N[C@@H](Cc1ccc(O)cc1)C(=O)N[C@H](C(=O)NCC(=O)N(C)[C@@H](CC(C)C)C(=O)N[C@@H](CCOC)C(N)=O)C(C)C)C(=O)O [compound 391, *Asp;Lys;Tyr;Val;Gly;NmLeu;Metox;NH2] ({Stearoyl-γGlu-AEEA-AEEA}-DKYVG[NMeL][hSer](Me)-NH2) . Reported hNK2R, Albumin binding Efficacy (%)-ovalbumin?
100

Consider the compound shown here: CCCC[C@H](NC(=O)[C@H](CC(C)C)N(C)C(=O)CNC(=O)[C@@H](NC(=O)[C@H](Cc1ccc(O)cc1)NC(=O)[C@H](CCCCN)NC(=O)[C@H](CC(=O)O)NC(=O)COCCOCCNC(=O)COCCOCCNC(=O)CC[C@H](NC(=O)CCCCCCCCCCCCCCCCC(=O)O)C(=O)O)C(C)C)C(N)=O [compound 305, *Asp;Lys;Tyr;Val;Gly;NmLeu;Nle;NH2] ({C18 diacid-γGlu-AEEA-AEEA}-DKYVG[NMeL][Nle]-NH2) What is its recorded hNK2R, Albumin binding Efficacy (%)-ovalbumin?
83

# hNK2R, Albumin binding Efficacy (%)-ovalbumin lookup, item CCCCCCCCCCCCCCCCCC(=O)N[C@@H](CCC(=O)NCCOCCOCC(=O)NCCOCCOCC(=O)N[C@@H](CC(=O)O)C(=O)N[C@@H](CCCCN)C(=O)N[C@@H](Cc1ccc(O)cc1)C(=O)N[C@H](C(=O)NCC(=O)N(C)[C@@H](CC(C)C)C(=O)N[C@@H](CCCC)C(N)=O)C(C)C)C(=O)O [compound 390, *Asp;Lys;Tyr;Val;Gly;NmLeu;Nle;NH2] ({Stearoyl-γGlu-AEEA-AEEA}-DKYVG[NMeL][Nle]-NH2)
100

meta.source: patent US20230406883A1
